Reference source for all entries: patent US12152031B2

- Test system: Burkholderia pseudomallei
- ASSAY_NAME: microbe, parasite or virus in culture
- Type: cell-based
- EXPERIMENTAL_SETUP: Burkholderia pseudomallei
MEASURED_QUANTITY: MIC90

Reference set, count: 2
[
  {
    "MOLECULE": "CC(=N)NCC[C@@H]1CCC[C@@H](c2ccc(-n3cc4cc(-c5cc(CCC[C@H](C)N)cc(Cl)c5F)[nH]c4nc3=O)cc2C)N1",
    "TARGET": "Burkholderia pseudomallei",
    "TEST_RESULT": "> 8 µg/mL"
  },
  {
    "MOLECULE": "CC(=N)NCC[C@@H]1CCC[C@@H](c2ccc(-n3cc4cc(-c5cc(CCC[C@H](C)N)cc(Cl)c5F)[nH]c4nc3=O)cc2)N1CCCO [RX-D2]",
    "TARGET": "Burkholderia pseudomallei",
    "TEST_RESULT": "> 8 µg/mL"
  }
]

Read the next record carefully.
For the molecule `C[C@H](N)CCCc1cc(Cl)c(F)c(-c2cc3cn(-c4ccc([C@@H]5CCC[C@@H](CCNC(=N)CN)N5)cc4)c(=O)nc3[nH]2)c1` , the measured MIC90 on Burkholderia pseudomallei was > 8 µg/mL
